# Target: recombinant human PLA2G2A (sPLA2-IIA) (Homo sapiens, UniProt P14555)
# Construct: purchased Creative BioMart PLA2G2A-669H
# Sequence (P14555 21-144): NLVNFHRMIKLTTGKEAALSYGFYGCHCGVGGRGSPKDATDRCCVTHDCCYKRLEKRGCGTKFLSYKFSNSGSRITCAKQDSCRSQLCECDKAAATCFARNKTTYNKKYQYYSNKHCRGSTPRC
# Protocol details: sPLA2 digestion assay: oleic acid release from stenfilcon A lenses loaded with phospholipid, in ATF with and without sPLA2 (LCMS)
# Assay type: biochemical
# Run parameters: 4 mm piece of phospholipid-loaded stenfilcon A lens in 100 μL ATF, 35±2° C., 4 hours, LCMS m/z 281.24
Readout name: Oleic acid peak area in ATF (without sPLA2)
Reply briefly: the number, and no unit.

Some solved entries appear below for comparison.
CCCCCCCC/C=C\CCCCCCCC(=O)OC[C@H](COP(=O)(O)OCCN)OC(=O)CCCCCCC/C=C\CCCCCCCC	463
CCCCCCCC/C=C\CCCCCCCC(=O)OC[C@H](COP(=O)([O-])OCC[N+](C)(C)C)OC(=O)CCCCCCC/C=C\CCCCCCCC [DOPC, 1,2-dioleoyl-sn-glycero-3-phosphocholine, reference compound]	102
CCCCCCCC/C=C\CCCCCCCC(=O)OC[C@H](COP(=O)(O)OCC(O)CO)OC(=O)CCCCCCC/C=C\CCCCCCCC (mixture of isomers)	36

(Q) Entry under review: CCCCCCCC/C=C\CCCCCCCC(=O)OC[C@H](COP(=O)(O)OC[C@H](N)C(=O)O)OC(=O)CCCCCCC/C=C\CCCCCCCC . Reported Oleic acid peak area in ATF (without sPLA2)?
(A) 88

Values compiled from patent US12174461B2.
